Biological target: T1, 4H993-AA
T1 chain: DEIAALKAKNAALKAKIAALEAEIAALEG
Assay: two-hybrid library CCmax;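 further: natural log of median RNA to DNA barcode read ratio; higher means stronger binding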
Details: mean of both orientations

binder	interaction score
DKNAALEAKIAALEAEIAALKAKNAALEG [4H3343-AA]	-1.4
DKIAALEAKNAALKAEIAALKAEIAALEG [4H2505-AA]	-1.53
DENAALEAKIAALEAKIAALKAENAALKG [4H1324-AA]	1.28
DKIAALEAEIAALKAKNAALEAKIAALEG [4H2165-AA]	0.0167
